measuredTarget: hP2X2/3 (Homo sapiens, UniProt P56373+Q9UBL9)
Construct: host or cells: TRex293 (hP2X2/3-TRex293), doxycycline-induced
protocolDetails: FLIPR intracellular calcium assay, hP2X2/3
Assay type: cell-based
cond: human P2X2/3-TRex293 cells, agonist at EC75
Procedure: The FLIPR® assay utilizes cells which express human or rat P2X3 or P2X2/3 receptors. […] Compounds were added to the respective wells of the assay-ready cell plate with the help of the FLIPR and fluorescence readings were captured for 5 min to observe any possible agonistic property of the compounds. […] The cells were stimulated with respective agonist EC75 concentration and the fluorescence readings were captured for another 5 min by FLIPR. […]
pIC50: −log10 of the molar value.
measurementKind: pIC50

In one line, give reported pIC50 of the entry CCC(CC)n1ncc2nc(N3CCN(C(C)=O)CC3)nc(N[C@H](CC)c3cnc4ccccc4c3)c21 [Example 35] .
6.00 to 7.00

Return value of pIC50 for input CCC(C)n1ncc2nc(-n3cnnn3)nc(N[C@@H](c3cnc4ccccc4c3)C3CC3)c21 (single isomer, unassigned) [Example 79] , no commentary.
5.00 to 6.00

Note pIC50 for the compound shown: CC(=O)N1CCN(c2nc(N[C@@H](c3cnc4ccccc4c3)C3CC3)c3c(cnn3C(C)C(C)C)n2)CC1 (stereo partly drawn) [Example 62]
6.00 to 7.00

---
Provide measured pIC50 value, entry: CCC(C)n1ncc2nc(-c3cnn(CCO)c3)nc(N[C@H](C)c3cnc4ccccc4c3)c21 (stereo partly drawn) [Example 113]
5.00 to 6.00

Consider the compound CCC(C)n1ncc2nc(-c3cnn(CC)c3)nc(N[C@@H](c3cnc4ccccc4c3)C3CC3)c21 (stereo partly drawn) [Example 115] and give its recorded pIC50.
6.00 to 7.00

Name the recorded pIC50 of the item CCC(C)n1ncc2nc(C3CCN(C(N)=O)CC3)nc(N[C@@H](c3cnc4ccccc4c3)C3CC3)c21 (stereo partly drawn) [Example 118] in your answer.
5.00 to 6.00

Identify measured pIC50 corresponding to CCC(C)n1cc2nc(N3CCN(C(C)=O)CC3)nc(NC(C)c3cnc4ccccc4c3)c2n1 (stereo not drawn) [Example 4]
< 5.00

Please give measured pIC50 of the following entry: CCC(C)n1ncc2nc(N3CCN(C(C)=O)CC3)nc(N[C@H](C)c3cnc4ccccc4c3)c21 (stereo partly drawn) [Example 89]
6.00 to 7.00

Entry CC(=O)N1CCN(c2nc(N[C@H](C)c3cnc4ccccc4c3)c3c(cnn3C(C)C)n2)CC1 [Example 12] needs its pIC50 filled in; supply it.
5.00 to 6.00

Annotate the compound CCOc1ccc([C@H](C)Nc2nc(N3CCN(C(C)=O)CC3)nc3cnn(C(CC)CC)c23)cc1 [Example 33] with its measured pIC50.
5.00 to 6.00

* * *

measuredTarget: hP2X3 (Homo sapiens, UniProt P56373)
Sequence (P56373 1-397): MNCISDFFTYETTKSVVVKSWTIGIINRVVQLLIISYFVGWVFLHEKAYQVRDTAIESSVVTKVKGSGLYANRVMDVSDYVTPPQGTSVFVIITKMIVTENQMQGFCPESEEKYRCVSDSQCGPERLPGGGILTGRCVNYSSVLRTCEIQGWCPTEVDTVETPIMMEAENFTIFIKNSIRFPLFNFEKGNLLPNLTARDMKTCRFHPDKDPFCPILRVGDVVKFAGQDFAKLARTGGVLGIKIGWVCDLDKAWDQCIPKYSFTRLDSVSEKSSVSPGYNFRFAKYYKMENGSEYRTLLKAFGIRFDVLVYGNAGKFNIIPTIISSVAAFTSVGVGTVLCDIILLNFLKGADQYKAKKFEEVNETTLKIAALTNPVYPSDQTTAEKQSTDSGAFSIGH
protocolDetails: FLIPR intracellular calcium assay, hP2X3
cond: human P2X3-HEK cells, agonist at EC75
Entries annotated with measured IC50

Recorded IC50, per entry:
Please look at this compound and report its IC50: CC(C)n1ncc2nc(N3CCN(C)C(=O)C3)nc(N[C@@H](c3cnc4ccccc4c3)C3CC3)c21 [Example 59]
1 to 100 nM

Consider the compound CC[C@H](C)n1ncc2nc(N3CCN(C(C)=O)CC3)nc(NC(COC)c3cnc4ccccc4c3)c21 (stereo partly shown) [Example 82] . State its measured IC50.
1 to 100 nM

Assign IC50 to the following record: CC[C@H](C)n1ncc2nc(N3CCN(C(N)=O)CC3)nc(NC(c3ccc4nccn4c3)C3CC3)c21 (stereo partly shown) [Example 67]
100 to 1000 nM

***
Quick one: give measured IC50 for CCC(CC)n1ncc2nc(N3CCN(C(C)=O)CC3)nc(N[C@@H](C)c3cnc4ccc(F)cc4c3)c21 [Example 54]
100 to 1000 nM

Identify measured IC50 associated with CCC(C)n1nc(C#N)c2nc(N3CCN(C(C)=O)CC3)nc(N[C@H](C)c3cnc4ccccc4c3)c21 (stereo partly shown) [Example 91]
1 to 100 nM

Look up and report measured IC50 for this entry: CCC(C)n1ncc2nc(N3CCN(/C(N)=N\C#N)CC3)nc(N[C@H](C)c3cnc4ccccc4c3)c21 (stereo partly shown) [Example 111]
1 to 100 nM

For the compound CC(=O)N1CCN(c2nc(NC(C)c3cnc4ccccc4c3)c3nn(C(C)C)c(C)c3n2)CC1 (stereo not shown) [Example 96] , report IC50.
1 to 100 nM
